Target: Lysosomal acid glucosylceramidase (Homo sapiens)
Sequence (whole entry): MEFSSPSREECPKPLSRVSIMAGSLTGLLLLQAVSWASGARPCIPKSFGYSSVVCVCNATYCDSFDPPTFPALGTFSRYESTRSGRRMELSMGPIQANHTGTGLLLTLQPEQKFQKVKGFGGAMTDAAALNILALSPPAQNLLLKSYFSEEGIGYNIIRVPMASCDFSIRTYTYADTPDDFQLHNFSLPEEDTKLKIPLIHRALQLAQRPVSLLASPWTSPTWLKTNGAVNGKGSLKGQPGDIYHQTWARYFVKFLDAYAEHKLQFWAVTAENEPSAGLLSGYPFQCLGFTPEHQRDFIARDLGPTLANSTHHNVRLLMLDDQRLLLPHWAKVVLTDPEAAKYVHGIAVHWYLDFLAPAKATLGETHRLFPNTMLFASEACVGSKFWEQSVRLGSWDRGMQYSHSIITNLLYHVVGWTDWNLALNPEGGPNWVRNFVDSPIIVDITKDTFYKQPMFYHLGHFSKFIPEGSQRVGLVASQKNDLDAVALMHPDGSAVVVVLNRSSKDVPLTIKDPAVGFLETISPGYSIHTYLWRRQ
Assay: Binding affinity to recombinant beta-glucocerebrosidase assessed as enzymatic activity at 100 uM after 40 mins by thermal stabilization assay relative to control
Entries and their measured fold change (FC) follow.

Below: 3 compounds and their reported fold change (FC).
• CCCCCCCCCCN[C@H]1[C@H](O)[C@@H](O)[C@H](O)[C@@H](O)[C@@H]1O = 4.49
• CCCCCCCCCn1cc(CN[C@H]2[C@H](O)[C@@H](O)[C@H](O)[C@@H](O)[C@@H]2O)nn1 = 6.71
• CCCCCCCCCCCCn1cc(CN[C@H]2[C@H](O)[C@@H](O)[C@H](O)[C@@H](O)[C@@H]2O)nn1 = 12.8

Note: attention shifts to another entry.
Req: Which value of fold change (FC) has been reported for "CCCCCCCCCn1cc(CCN[C@H]2[C@H](O)[C@@H](O)[C@H](O)[C@@H](O)[C@@H]2O)nn1" in the records?
Resp: 5.75

Data credit: ChEMBL document CHEMBL1155442
